System: Histamine H3 receptor (Homo sapiens, UniProt Q9Y5N1) | Read-out: AC50; note: assay procedure not described here
Sequence (Q9Y5N1 whole entry): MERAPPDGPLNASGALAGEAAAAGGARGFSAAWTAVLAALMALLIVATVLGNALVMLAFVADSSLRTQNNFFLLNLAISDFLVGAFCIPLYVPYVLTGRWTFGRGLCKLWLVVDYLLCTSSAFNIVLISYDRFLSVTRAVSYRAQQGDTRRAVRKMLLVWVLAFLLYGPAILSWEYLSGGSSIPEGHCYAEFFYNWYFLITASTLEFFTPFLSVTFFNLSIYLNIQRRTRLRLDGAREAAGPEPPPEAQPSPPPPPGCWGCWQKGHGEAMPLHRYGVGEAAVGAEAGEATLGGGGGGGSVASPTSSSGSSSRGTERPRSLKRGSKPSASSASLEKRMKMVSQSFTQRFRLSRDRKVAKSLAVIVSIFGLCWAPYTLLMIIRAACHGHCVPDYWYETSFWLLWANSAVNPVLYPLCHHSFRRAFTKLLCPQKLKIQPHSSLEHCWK

Some entries whose results are on file:
STRUCTURE NOTATION	PROPERTY LABEL	DATA VALUE
CN(C)CCN(Cc1ccc(Cl)cc1)c1ccccn1	AC50	> 30 µM
CCCCOc1ccc(CC(=O)NO)cc1	AC50	> 30 µM
CCCCNc1ccc(C(=O)OCCN(C)C)cc1	AC50	24.2 µM
NCCCC(O)(P(=O)(O)O)P(=O)(O)O	AC50	> 30 µM
CCOC(=O)[C@H](CCc1ccccc1)N[C@H]1CS[C@H](c2cccs2)CN(CC(=O)O)C1=O	AC50	> 30 µM

Below are some compounds; for each one, tell me its AC50.
1. c1cc(CN2CCCNCCNCCCNCC2)ccc1CN1CCCNCCNCCCNCC1
2. CCOC(=O)[C@H](CCc1ccccc1)N[C@@H](C)C(=O)N1Cc2cc(OC)c(OC)cc2C[C@H]1C(=O)O
3. Cc1nnc(SCC2=C(C(=O)O)N3C(=O)[C@@H](NC(=O)Cn4cc(Cl)c(=O)c(Cl)c4)[C@H]3SC2)s1
4. CC1(C)S[C@@H]2[C@H](NC(=O)[C@H](NC(=O)N3CCN(S(C)(=O)=O)C3=O)c3ccccc3)C(=O)N2[C@H]1C(=O)O

Reply |
0.307 µM
> 30 µM
> 30 µM
> 30 µM

----------
Assay read-out AC50; system under study: UniProt:P35462.
Sequence (P35462 whole entry): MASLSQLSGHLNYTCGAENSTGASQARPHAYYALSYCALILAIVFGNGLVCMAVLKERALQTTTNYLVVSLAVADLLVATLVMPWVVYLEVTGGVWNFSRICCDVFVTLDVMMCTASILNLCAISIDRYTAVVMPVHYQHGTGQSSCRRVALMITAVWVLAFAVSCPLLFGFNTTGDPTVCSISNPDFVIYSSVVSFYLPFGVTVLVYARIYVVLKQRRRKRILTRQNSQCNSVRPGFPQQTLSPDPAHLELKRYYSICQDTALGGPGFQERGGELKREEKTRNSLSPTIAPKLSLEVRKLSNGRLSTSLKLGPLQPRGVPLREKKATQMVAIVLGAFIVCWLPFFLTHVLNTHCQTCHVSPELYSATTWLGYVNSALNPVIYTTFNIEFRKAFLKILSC

Previously resolved entries follow.
MOLECULE	AC50
CCOc1ccc2ccccc2c1C(=O)N[C@@H]1C(=O)N2[C@@H]1SC(C)(C)[C@@H]2C(=O)O	> 30 µM
COCCCOc1ccnc(C[S+]([O-])c2nc3ccccc3[nH]2)c1C (stereo not drawn)	> 30 µM
CCC(=O)O[C@]1(C(=O)COC(C)=O)CC[C@H]2[C@@H]3CCC4=CC(=O)CC[C@]4(C)[C@H]3[C@@H](O)C[C@@]21C [HYDROCORTISONE ACEPONATE]	> 30 µM
CCCCC/C=C\C/C=C\C/C=C\CCCCC(=O)O	> 30 µM
Nc1nc(N)nc(Nc2ccc([As]3SCC(CO)S3)cc2)n1 (stereo not drawn)	> 30 µM
O=C(O)COc1nn(Cc2ccccc2)c2ccccc12	> 30 µM

Hi team, please reply with AC50 for each item in this list.
1. NC(=O)c1nc(F)c[nH]c1=O
2. Cc1cc2c(OCC(O)CNC(C)C)cccc2[nH]1 (stereo not drawn) [MEPINDOLOL]
3. COCCOc1cnc(NS(=O)(=O)c2ccccc2)nc1
4. C[C@]1(COc2ccc(N3CCC(Oc4ccc(OC(F)(F)F)cc4)CC3)cc2)Cn2cc([N+](=O)[O-])nc2O1
5. COc1cc([C@@H]2c3cc4c(cc3[C@@H](O[C@@H]3O[C@@H]5CO[C@@H](c6cccs6)O[C@H]5[C@H](O)[C@H]3O)[C@H]3COC(=O)[C@H]23)OCO4)cc(OC)c1O [TENIPOSIDE]
6. O=C1[C@H]2CCCC[C@H]2C(=O)N1CCCCN1CCN(c2nsc3ccccc23)CC1
7. CN(C)c1cc(CNCC(C)(C)C)c(O)c2c1C[C@H]1C[C@H]3[C@H](N(C)C)C(O)=C(C(N)=O)C(=O)[C@@]3(O)C(O)=C1C2=O
8. O=C(Nc1cccc2c(=O)cc(-c3nnn[nH]3)oc12)c1ccc(OCCCCc2ccccc2)cc1

Reply |
1. > 30 µM
2. 19.9 µM
3. > 30 µM
4. > 30 µM
5. > 30 µM
6. 0.003 µM
7. > 30 µM
8. 4.45 µM
